// data source = patent US9914731B2

# pIC50 annotations
target: recombinant human baculovirus-expressed cMET (Homo sapiens (Human), UniProt P08581); assay: c-MET kinase assay (HTRF KinEASE); assay type: biochemical; details: average of two or more determinations; read-out: c-MET IC50
Sequence (P08581 25-1390): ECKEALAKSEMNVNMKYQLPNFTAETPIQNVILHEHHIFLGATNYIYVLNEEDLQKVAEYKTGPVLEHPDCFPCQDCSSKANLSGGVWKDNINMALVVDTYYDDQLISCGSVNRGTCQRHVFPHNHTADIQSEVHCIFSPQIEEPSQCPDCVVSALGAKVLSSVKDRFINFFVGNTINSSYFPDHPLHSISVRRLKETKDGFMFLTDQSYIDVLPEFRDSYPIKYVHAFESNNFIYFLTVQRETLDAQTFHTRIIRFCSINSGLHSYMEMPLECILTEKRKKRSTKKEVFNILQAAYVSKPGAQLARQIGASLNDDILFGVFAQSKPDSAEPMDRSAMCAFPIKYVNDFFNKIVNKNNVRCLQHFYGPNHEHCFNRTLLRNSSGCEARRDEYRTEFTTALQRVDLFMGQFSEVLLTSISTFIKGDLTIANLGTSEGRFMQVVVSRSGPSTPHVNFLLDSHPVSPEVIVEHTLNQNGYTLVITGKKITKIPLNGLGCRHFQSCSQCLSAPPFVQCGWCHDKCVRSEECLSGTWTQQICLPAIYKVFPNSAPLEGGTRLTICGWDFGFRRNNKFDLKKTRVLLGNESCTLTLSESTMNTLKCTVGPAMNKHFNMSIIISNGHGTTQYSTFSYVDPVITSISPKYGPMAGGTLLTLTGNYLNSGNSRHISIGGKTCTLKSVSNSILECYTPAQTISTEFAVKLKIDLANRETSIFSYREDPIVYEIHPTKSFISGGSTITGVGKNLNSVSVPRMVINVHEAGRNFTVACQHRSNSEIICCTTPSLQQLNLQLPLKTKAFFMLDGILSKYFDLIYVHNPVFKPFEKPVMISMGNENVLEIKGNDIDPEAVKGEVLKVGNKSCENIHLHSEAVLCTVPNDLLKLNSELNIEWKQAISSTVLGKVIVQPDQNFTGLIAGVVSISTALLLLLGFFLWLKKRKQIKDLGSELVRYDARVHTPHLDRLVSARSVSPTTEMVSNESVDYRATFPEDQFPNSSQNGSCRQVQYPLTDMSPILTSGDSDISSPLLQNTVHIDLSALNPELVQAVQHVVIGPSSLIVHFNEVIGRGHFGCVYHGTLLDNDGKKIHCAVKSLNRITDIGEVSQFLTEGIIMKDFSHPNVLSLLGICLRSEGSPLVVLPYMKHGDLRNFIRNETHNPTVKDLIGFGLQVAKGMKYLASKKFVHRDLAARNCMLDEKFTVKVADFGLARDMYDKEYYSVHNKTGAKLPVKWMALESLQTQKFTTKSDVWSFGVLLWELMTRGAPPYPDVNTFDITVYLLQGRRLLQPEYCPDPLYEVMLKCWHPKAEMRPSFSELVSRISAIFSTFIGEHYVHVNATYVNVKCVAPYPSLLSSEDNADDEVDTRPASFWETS
pIC50: −log10 of the molar value.
TEST_READOUT: pIC50

RECORD_SMILES	VALUE_MEASURED
CC(C)n1nc(C(=O)Nc2ccc(Oc3cc(-c4cn(C)cn4)cn4nccc34)cn2)c(=O)n(-c2ccc(F)cc2)c1=O	> 8.00
CCn1cc(C(=O)Nc2ccc(Oc3cc(-c4cnco4)cn4nccc34)c(F)c2)c(=O)n(-c2ccc(F)cc2)c1=O	> 8.00
O=C(Nc1ccc(Oc2cc(-c3ccncc3)cn3nccc23)c(F)c1)c1cccn(-c2ccc(F)cc2)c1=O	> 8.00
COc1cc(Oc2ccc(NC(=O)c3cccn(-c4ccc(F)cc4)c3=O)cc2F)c2ccnn2c1	6.00 to 7.00
O=C(Nc1ccc(Oc2cc(C3CCOCC3)cn3nccc23)c(F)c1)c1cccn(-c2ccc(F)cc2)c1=O	> 8.00
CC(C)n1cc(C(=O)Nc2ccc(Oc3cc(-c4cnccn4)cn4nccc34)c(F)c2)c(=O)n(-c2ccc(F)cc2)c1=O	7.00 to 8.00
O=C(Nc1ccc(Oc2cc(-c3cscn3)cn3nccc23)c(F)c1)c1cccn(-c2ccc(F)cc2)c1=O	> 8.00
CCCCCn1cc(C(=O)Nc2ccc(Oc3cc(-c4cn(C)cn4)cn4nccc34)c(F)c2)c(=O)n(-c2ccc(F)cc2)c1=O	> 8.00
